Taken from PubChem BioAssay AID1159580.

MEASUREMENT_NOTES: chemical genetic growth profiling, strain panel (AID 1159580);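 further: tested at 20 µM; growth read once vehicle control cultures reached saturation at 30 °C; lower values mean less growth of the strain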
ASSAY_CONDITIONS: S. cerevisiae deletion strains, growth OD, locus YHR094C, strain hxt1
The whole screen tested about 5,500 compounds, of which about 2,000 (36%) were called active. Inconclusive results (about 18%) are left out. No stated cut-off is given here; in the data, active means normalized growth mostly below about 0.91 (no sharp cut-off); inconclusive means no clear call, values can overlap the other calls; inactive means mostly above about 0.92. The list shows a part of the results. Where a SMILES comes first, the peptide text is derived from it. [ ]: non-standard residue; d: D form. Orn = NCCC[CH](N)C(=O)O
Classes used: t = active, f = inactive

>  <COMPOUND>
CC(C)CC1NC(=O)C(CCCN)NC(=O)C(C(C)C)NC(=O)C2CCCN2C(=O)C(Cc2ccccc2)NC(=O)C(CC(C)C)NC(=O)C(CCCN)NC(=O)C(C(C)C)NC(=O)C2CCCN2C(=O)C(Cc2ccccc2)NC1=O (stereo unspecified) (cyclo(FPV[Orn]LFPV[Orn]L); configuration not given here)

>  <ASSIGNED_LABEL>
f

$$$$
>  <COMPOUND>
OCCN1CCN(CCCN2c3ccccc3Sc3ccc(C(F)(F)F)cc32)CC1

>  <ASSIGNED_LABEL>
f

$$$$
>  <COMPOUND>
CC(=O)Oc1cc2c(c(C)c1OC(C)=O)CC1OC13C2(C)CCC1(C)C2CC(C)(C(=O)O)CCC2(C)CCC13C (stereo unspecified)

>  <ASSIGNED_LABEL>
f

$$$$
>  <COMPOUND>
CC1(C)C(=O)[C@@H]2O[C@@H]2[C@@]2(C)C1CC(=O)[C@]1(C)C2CC[C@@]2(C)[C@H](c3ccoc3)OC(=O)[C@H]3O[C@]321 (stereo partly specified)

>  <ASSIGNED_LABEL>
f

$$$$
>  <COMPOUND>
CO[C@H]1C[C@H](O[C@H]2[C@H](C)[C@@H](OC3O[C@H](C)C[C@H](N(C)C)[C@H]3OC(C)=O)[C@@H](C)C[C@]3(CO3)C(=O)[C@H](C)[C@@H](OC(C)=O)[C@@H](C)[C@@H](C)OC(=O)[C@@H]2C)O[C@@H](C)[C@@H]1OC(C)=O (stereo partly specified)

>  <ASSIGNED_LABEL>
f

$$$$
>  <COMPOUND>
CCc1cccc2c3c([nH]c12)C(CC)(CC(=O)O)OCC3 (stereo unspecified)

>  <ASSIGNED_LABEL>
f

$$$$
>  <COMPOUND>
NCC1OC(OC2C(CO)OC(OC3C(O)C(N)CC(N)C3OC3OC(CO)C(O)CC3N)C2O)C(N)C(O)C1OC1OC(CO)C(O)C(O)C1O (stereo unspecified)

>  <ASSIGNED_LABEL>
f

$$$$
>  <COMPOUND>
c1ccc([C@H]2CN3CCSC3=N2)cc1

>  <ASSIGNED_LABEL>
f

$$$$
>  <COMPOUND>
CC1=C(O)C(=O)C=C2C1=CC=C1[C@@]2(C)CC[C@@]2(C)[C@@H]3C[C@](C)(C(=O)O)CC[C@]3(C)CC[C@]12C

>  <ASSIGNED_LABEL>
t

$$$$
>  <COMPOUND>
O=C(CCc1ccc(O)cc1)c1c(O)cc(O)cc1O[C@@H]1O[C@H](CO)[C@@H](O)[C@H](O)[C@H]1O

>  <ASSIGNED_LABEL>
f

$$$$
>  <COMPOUND>
CN1CCN(CCC=C2c3ccccc3Sc3ccc(S(=O)(=O)N(C)C)cc32)CC1

>  <ASSIGNED_LABEL>
f

$$$$
